experiment: amyloid nucleation score (Sup35N fusion, yeast selection) (log enrichment); library NNK2; higher = more nucleation; inactive = no reads after selection;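 note: zero at mode of non-aggregating sequences after 7 days selection at 30°C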
reportedMetric: amyloid nucleation score

orderedresidues=LWNSIDNS valuereported=inactive
orderedresidues=VTLRTANGDKWKTPASNI valuereported=inactive
orderedresidues=IICSNRQIRFKKGDFFIVFW valuereported=inactive

====

assay: amyloid nucleation score (Sup35N fusion, yeast selection) (log enrichment); library NNK1; higher = more nucleation; inactive = no reads after selection
reportedMetric: amyloid nucleation score

orderedresidues=RYSLFIVSYCDGHRSSTRNM valuereported=inactive
orderedresidues=LACWLTTRNKCILNSLITLV valuereported=0.08
orderedresidues=CHNVVGSVKRIRSKFMKCFV valuereported=inactive

====

Record form. Attribute: amyloid nucleation score. Fill in for each entry.
test: amyloid nucleation score (Sup35N fusion, yeast selection) (log enrichment); library NNK1; higher = more nucleation; inactive = no reads after selection
Answers are plain numbers.

For orientation, consider the following solved cases.
orderedresidues=WTLQMLAYWYLTFFFPSFVY valuereported=0.169
orderedresidues=PLSVFTTPPSDHCDIKGKIE valuereported=-0.852
orderedresidues=LYEVNWVSYRMFAVGVRYVL valuereported=-0.397
orderedresidues=KQECQYCWSG valuereported=-1.15
orderedresidues=YSGWEEITVFFSDARV valuereported=-0.115

In the following, a different sequence is considered.
[ask] Entry VLGYSRPLSDTSSVGTIIPA needs its amyloid nucleation score filled in; supply it.
[reply] 0.172

====

Assign amyloid nucleation score to each entry below.
assay: amyloid nucleation score (Sup35N fusion, yeast selection) (log enrichment); library NNK2; higher = more nucleation; inactive = no reads after selection
Numbers only.

Below are worked cases with known answers.
substance=GCRAVRTWEPIGVAGEYFGS reportedmetric="amyloid nucleation score" valuereported=6.23
substance=LSVMLTYYGYMPNLYIVVRE reportedmetric="amyloid nucleation score" valuereported=-0.713

Each substance below has a recorded value; state its amyloid nucleation score.
1. CYCEEMSMNTFKTCINTGAM
2. VSLYRKGSASKEGGLERATD
3. DGFRTYIVRWEATVANSLVV
4. RAACFSAAHRTDWTWPDGDM
5. FVFIYYIVLQHATANHSMQA

[reply]
1.04
0.55
0.736
2.49
4.92

Could I get amyloid nucleation score for every one of these entries?
1. YRYLLVLSWRSMFAHRLLPS
2. VKFCVWCGD
3. CNRCIQRMRASMTDSVFSGV
4. VGSLYICDLAPGKHKYCSVV

[reply]
[1.5, 7.04, -1.35, 0.266]

Please give amyloid nucleation score, item by item, for the list that follows.
1. CTCFGRVRLQKSIWGKRLIH
2. GCGGAHY
3. SGTALTRAESSTLMFNRNYR
4. GFPVWNVYLKSNGHVCDGLG
5. ASAEQRNLCIEFASDQLYVI
6. IVRQIASFGRIRDRTRDDEW
7. HAYSWNNRPVGVVRSRSRLF

[reply]
-0.383
-0.633
0.106
1.31
-0.478
3.05
-0.597

====

assay: amyloid nucleation score (Sup35N fusion, yeast selection) (log enrichment); library NNK1; higher = more nucleation; inactive = no reads after selection
reportedMetric: amyloid nucleation score
Give bare numbers.

The examples below pair each entry with its known result.
substance=HHCHSSGL valuereported=0.981
substance=GNWTGGYCVCGRQSSLIVVE valuereported=-0.016
substance=FVEMVYFNECCIPKFDIEYV valuereported=1.6
substance=KSGVRYNRGRKYASTQ valuereported=-0.302
substance=LRKGTVRLSSFEKWYMVRTG valuereported=-0.701

Record amyloid nucleation score per entry; entries follow.
1. YMYEMGICFELDDTHEG
2. SLFMDRFNVDVI
3. IWLLGSVHRLDSLVTDCKTS
4. LDINDTMYETNCFG
5. KWILVRSLESIHKPTL
6. KGAIPFSSDCGGLSGLILYC

[reply]
[0.608, -0.107, 1.08, -0.488, 0.174, 0.301]

Below are some substances; for each one, tell me its amyloid nucleation score.
1. DGEAPKGSTGWTCGRVNERD
2. VPAVSCMVFTAQFDSGVYSC
3. AAKRSETAP
4. TVYMGTLCHYYSGIRLGSIL

[reply]
-0.125
-0.03
-0.308
0.458

For each of the substances below, state amyloid nucleation score.
1. FCVYKAVCIHYPSGFPLTIG
2. YTDFRQSLLTVT
3. RLAGKHKRTDTRSKRTPVLR
4. AFAVSSYWVRGIHRESYGSV
5. KVGHANVADFPIWRRNLFG
6. THGPFRCLSNCDVFTPNPEE
7. SMAIVDRWLMQGSSQPAGS
8. LKASMW

[reply]
1: -0.238; 2: 0.07; 3: 0.495; 4: 0.591; 5: -0.544; 6: 1.03; 7: 0.702; 8: 0.322

Consider the following items and state reported amyloid nucleation score for each.
1. VSSVGKMPDALRVKAKWIFM
2. SKEFPHMYFFGVRFVVVTKV
3. YILDGESAYFVLLYEKVYFS
4. SYHLLMHMGIGQTLYKTRYD
5. ECMGGVAIARNFATI
6. LHLRTVAGSWSNIFYLAAPM

[reply]
0.141
-0.246
-0.403
1.98
-1.11
0.433

====

assay: amyloid nucleation score (Sup35N fusion, yeast selection) (log enrichment); library NNK3; higher = more nucleation; inactive = no reads after selection
reportedMetric: amyloid nucleation score

substance=CFRVYVPNSKSDDL reportedmetric="amyloid nucleation score" valuereported=inactive
substance=GSSIEPDWL reportedmetric="amyloid nucleation score" valuereported=inactive
substance=MVGWVWERMRHAPWE reportedmetric="amyloid nucleation score" valuereported=inactive
substance=LRSVLSVGGEMAYINCNQLL reportedmetric="amyloid nucleation score" valuereported=inactive
substance=IKSHVAIDSVPER reportedmetric="amyloid nucleation score" valuereported=inactive
substance=KFMCSNAF reportedmetric="amyloid nucleation score" valuereported=inactive
substance=MCSPYFMSTSNTIFQSTRYG reportedmetric="amyloid nucleation score" valuereported=1.12
substance=NELCLVMIKKDVSMRVWLES reportedmetric="amyloid nucleation score" valuereported=inactive
substance=SGLVCVT reportedmetric="amyloid nucleation score" valuereported=inactive
substance=HECVYYSSLTQSYVSVYIFT reportedmetric="amyloid nucleation score" valuereported=2.65

Give one value of amyloid nucleation score per listed substance.
1. FRACIVLYNTVHVVHFNISR
2. FINAVAIRMIILVSRTRPTF

[reply]
[0.565, 0.984]

====

assay: amyloid nucleation score (Sup35N fusion, yeast selection) (log enrichment); library NNK3; higher = more nucleation; inactive = no reads after selection
reportedMetric: amyloid nucleation score

Below, 5 substances whose answers are already recorded.
substance=AFLSMSGNLLVVYSGEGGSP reportedmetric="amyloid nucleation score" valuereported=-0.027
substance=CEPMRYNCFCGFCIYDVRV reportedmetric="amyloid nucleation score" valuereported=2.36
substance=NELCVTFLGCRPYVPA reportedmetric="amyloid nucleation score" valuereported=-0.469
substance=SNLSNPLIVMKFYQAAMGVH reportedmetric="amyloid nucleation score" valuereported=inactive
substance=QLLFPGLWESATRILCENFM reportedmetric="amyloid nucleation score" valuereported=inactive

The following substances each have a reported value; give each one's amyloid nucleation score.
1. DTYIGNINESMH
2. WFRTGLAKNSISSGVGVMCH

[reply]
1: inactive; 2: inactive

Dear reader, for each entry below, please note its amyloid nucleation score.
1. RSVVRFWFFLINRHVYELSL
2. TISDFISEEIRDLQGPVVCI
3. ACFLIYYLR

[reply]
1: inactive; 2: inactive; 3: inactive

Look up amyloid nucleation score for the entries below, preserving their order.
1. YGFRMRRLVARLESRQWFWG
2. IIMSQMVYIVRDIHFVCWVI
3. NSDSFML

[reply]
inactive
inactive
inactive

Count: 6. Required value per item: amyloid nucleation score.
1. RTWLGWEGNIIPSETGTYRS
2. YELGIHWTYCWL
3. KGKITCM
4. PTEVYEATYCHFTNLL
5. DDCQFSDNRRFKSVPSYSQR
6. WFFTLCSSDQVSRGMR

[reply]
1. inactive
2. 2.39
3. inactive
4. inactive
5. inactive
6. inactive

Batch lookup, amyloid nucleation score per entry.
1. FLTFHGC
2. CHNVLWRLKRFHASRCTGDM
3. SWCSPNGPQGLEVCSMRPFR

[reply]
1. inactive
2. inactive
3. inactive

====

experiment: amyloid nucleation score (Sup35N fusion, yeast selection) (log enrichment); library NNK2; higher = more nucleation; inactive = no reads after selection
Assign class by amyloid nucleation score: not lower than -0.1 means yes; lower than -0.1 means no.

Examples from the recorded data:
orderedresidues=YAVVFHVPLLV assignedclass=yes
orderedresidues=GIRLGSNDQSVYSRPNV assignedclass=yes
orderedresidues=VRRLLEAFWARKFFLVAITQ assignedclass=no
orderedresidues=ISDAKRNCRCRSLPILIMVW assignedclass=yes
orderedresidues=TWFAHQMWCFSILQFITLKS assignedclass=yes

[ask] Given ASTSLMVN , state whether its amyloid nucleation score is at least -0.1.
[reply] yes

[ask] Decide: is the reported value of amyloid nucleation score for IYLTLNGILAICASRAWAAK equal to or greater than -0.1?
[reply] yes

[ask] Can LDSVQWNGCMIRYSYLGMGW be said to have amyloid nucleation score at or above -0.1?
[reply] no

[ask] Is it the case that KVYATVDFDLLGQAPTSAMN has amyloid nucleation score reaching or exceeding -0.1?
[reply] yes

[ask] Assess whether reported amyloid nucleation score for KSRVVMRTHAHSALWKWPGR sits at -0.1 or higher.
[reply] yes

[ask] For this sequence, is measured amyloid nucleation score -0.1 or higher? GNYVSTFFKCRILYRMNLMF
[reply] no

[ask] Decide: amyloid nucleation score of GFYGLTVSSTEYKWSMIQIR >= -0.1?
[reply] yes

[ask] Does PKYTDCCFFNLILIGWSVFP have a reported amyloid nucleation score of at least -0.1?
[reply] yes

[ask] Textbook exercise: given the entry WGNGLSFTAACLLVLLKRNS , state whether its amyloid nucleation score is greater than or equal to -0.1.
[reply] yes

[ask] For this sequence, is measured amyloid nucleation score -0.1 or higher? NLKRMFYVGCSIVSRKLIGR
[reply] yes

[ask] Threshold query (amyloid nucleation score >= -0.1) on AQGSRDSNRRVEASACY
[reply] yes

[ask] Could you please find out whether DRPALCSLCSETSVVNTLHL has amyloid nucleation score that meets -0.1 or exceeds it?
[reply] yes

[ask] Given the entry MSWIGCYYYFNAQQHNSG , answer whether its amyloid nucleation score meets or surpasses -0.1.
[reply] yes

[ask] Does the sequence SWFRMSVWSSLRAHMNASNT have recorded amyloid nucleation score that is -0.1 or more?
[reply] no

[ask] Assess whether reported amyloid nucleation score for TWQTLYASSVFFANPVEHPL sits at -0.1 or higher.
[reply] yes

[ask] hey, is amyloid nucleation score for this one >= -0.1? VWTSIYDFSLWADYGQK
[reply] no

[ask] Exam item: decide whether the reported amyloid nucleation score for FCYCLIKGCMLEGLSNYSCD is at least -0.1.
[reply] no

[ask] Form field: amyloid nucleation score at least -0.1? Entry: RFVVWRHFSWIATMLSTIPV
[reply] yes
